From: the supplement of paper PMC9170038

# System: MS2 coat protein
# protocol.notes: apparent KD of MS2 coat protein; designed switch direction (-1 OFF switch, 1 ON switch): -1; higher = weaker reporter binding
# condition.context: input ligand: microRNA oligo, concentration not stated
measure: apparent KD of MS2 coat protein (µM)
I only need the number, in µM, no unit after it.

{"seq.text": "UAAUUAAAUGUAGGAUAUCUGCACGAUUAGUGCAGAGAAGGACAUGAGGAUCACCCAUGUAGAUCAAAUUAAAUUAAUUUAAUU [ENG1/5-D1] (Eterna round: R96, puzzle: Exclusion NG 1)", "measure": "apparent KD of MS2 coat protein", "numeric.value": 0.0245}
{"seq.text": "AUCAUGGACGCAGGAUAUACAUGAGGAUCACCCAUGUAGUAUGAUCAGUGAUGGUCGUCGAUAGUGUAGAAGGGCGGCUAGUAG [random] (Eterna round: R96, puzzle: Exclusion NG 2)", "measure": "apparent KD of MS2 coat protein", "numeric.value": 0.0242}
{"seq.text": "AGCUGUGGCCGAGGAUAUCUAACAAUCCUAACCGAAAUAUAAUCGGACAUGAGGAUCACCCAUGUAGAGAAGGCGGUCUCAGCA [Eli eng2 - 074] (Eterna round: R96, puzzle: Exclusion NG 2)", "measure": "apparent KD of MS2 coat protein", "numeric.value": 0.0681}
{"seq.text": "UUUUGAAAGUGAGGAUAUGACAUGAGGAUCACCCAUGUAAAGGGAGUUGACUAUAUAGAAAGAUAUCAGAAGGCACAAAUGUUU [JR_ExcNG2_Sub002] (Eterna round: R96, puzzle: Exclusion NG 2)", "measure": "apparent KD of MS2 coat protein", "numeric.value": 0.237}
{"seq.text": "UAUUUAUAUGAAGGAUAUACUUAACAUGAGGAUCACCCAUGUGGUGUUGUGAGUGAGUGAGUUUAGUAGAAGGUCAAUUAUUUU [JMF's solution 30] (Eterna round: R96, puzzle: Exclusion NG 2)", "measure": "apparent KD of MS2 coat protein", "numeric.value": 0.131}
{"seq.text": "UCAUGGGAGCGAGGAUAUAGCCCAUGUGAAGAACUAGAAGGCGCAGACAUGAGGAUCACCCAUGUGUUCAUGAGGAGGUGGACA (Eterna round: R96, puzzle: Exclusion NG 1)", "measure": "apparent KD of MS2 coat protein", "numeric.value": 0.0825}
{"seq.text": "GGUCAGAUGGUAGGAUAUCCAUAUCGAGUGACCCUUUCAUAACAUGAGGAUCACCCAUGUCGGUGGGAGAAGGGUCGUACGGCG [salish99_ExNG02_R04_020] (Eterna round: R96, puzzle: Exclusion NG 2)", "measure": "apparent KD of MS2 coat protein", "numeric.value": 0.0164}
{"seq.text": "UAUAUAUAGUAAGGAUAUGUAUUAAUUUUACAAACAGAAGGUACUGACAUGAGGAUCACCCAUGUUUUAGUGUGGGCAUGUAGA [JMF's solution 89] (Eterna round: R96, puzzle: Exclusion NG 1)", "measure": "apparent KD of MS2 coat protein", "numeric.value": 0.0459}

Shift focus to the following entry.
-- ask Form field: reported apparent KD of MS2 coat protein of AUAAAUCAUGUAGGAUAUGCGUGGCAAAGCUAUGCAGAAGGACAUGAGGAUCACCCAUGUGCUUCCGUCUGGGAACAGACGGUA [Mat - Exclusion NG 1 - Mod of JL - D34] (Eterna round: R96, puzzle: Exclusion NG 1)
-- reply 0.0677
